Tested System: human C5 complement protein (Homo sapiens)
Sequence (P01031 19-1676): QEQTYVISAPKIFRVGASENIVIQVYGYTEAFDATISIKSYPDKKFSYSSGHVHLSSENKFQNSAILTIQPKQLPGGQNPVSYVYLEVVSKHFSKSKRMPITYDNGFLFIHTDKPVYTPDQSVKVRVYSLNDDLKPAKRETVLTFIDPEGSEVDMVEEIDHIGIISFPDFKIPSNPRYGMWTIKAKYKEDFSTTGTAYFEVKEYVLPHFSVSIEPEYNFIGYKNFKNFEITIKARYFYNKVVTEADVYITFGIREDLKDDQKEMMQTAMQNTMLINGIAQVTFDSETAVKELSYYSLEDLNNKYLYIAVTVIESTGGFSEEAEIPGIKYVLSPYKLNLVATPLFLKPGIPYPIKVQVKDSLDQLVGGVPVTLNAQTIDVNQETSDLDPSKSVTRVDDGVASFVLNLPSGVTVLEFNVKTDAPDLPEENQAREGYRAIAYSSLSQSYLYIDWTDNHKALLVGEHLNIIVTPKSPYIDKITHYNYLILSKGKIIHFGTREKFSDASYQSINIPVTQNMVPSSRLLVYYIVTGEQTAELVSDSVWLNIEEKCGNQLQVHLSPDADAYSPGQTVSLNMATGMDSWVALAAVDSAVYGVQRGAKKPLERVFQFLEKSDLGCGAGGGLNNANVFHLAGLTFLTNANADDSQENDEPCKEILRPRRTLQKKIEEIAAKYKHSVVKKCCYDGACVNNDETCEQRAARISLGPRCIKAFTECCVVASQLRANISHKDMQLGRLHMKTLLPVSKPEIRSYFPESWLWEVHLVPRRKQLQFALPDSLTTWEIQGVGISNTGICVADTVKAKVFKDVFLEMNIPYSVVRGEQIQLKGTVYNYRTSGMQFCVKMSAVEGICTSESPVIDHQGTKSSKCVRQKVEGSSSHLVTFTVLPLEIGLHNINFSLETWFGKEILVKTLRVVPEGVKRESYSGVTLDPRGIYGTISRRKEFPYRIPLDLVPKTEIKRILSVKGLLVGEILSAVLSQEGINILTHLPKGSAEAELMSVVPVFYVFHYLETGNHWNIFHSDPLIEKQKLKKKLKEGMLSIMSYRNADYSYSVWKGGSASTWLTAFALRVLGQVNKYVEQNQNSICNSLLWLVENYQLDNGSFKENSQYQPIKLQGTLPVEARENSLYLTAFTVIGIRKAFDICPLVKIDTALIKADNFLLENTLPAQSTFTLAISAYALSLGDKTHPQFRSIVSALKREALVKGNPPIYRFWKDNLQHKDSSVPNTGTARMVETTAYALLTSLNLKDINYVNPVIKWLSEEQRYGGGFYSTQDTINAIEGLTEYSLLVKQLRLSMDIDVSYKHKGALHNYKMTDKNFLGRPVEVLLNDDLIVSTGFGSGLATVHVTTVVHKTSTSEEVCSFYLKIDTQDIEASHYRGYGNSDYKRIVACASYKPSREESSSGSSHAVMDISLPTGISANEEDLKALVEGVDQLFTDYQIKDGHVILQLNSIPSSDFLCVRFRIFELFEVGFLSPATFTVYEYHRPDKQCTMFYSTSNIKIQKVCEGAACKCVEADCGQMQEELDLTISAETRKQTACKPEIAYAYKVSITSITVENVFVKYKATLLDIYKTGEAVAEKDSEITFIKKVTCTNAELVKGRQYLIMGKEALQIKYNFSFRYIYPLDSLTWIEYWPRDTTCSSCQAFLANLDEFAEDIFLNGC
Protocol Notes: Surface plasmon resonance (SPR), immobilized human C5, 37° C. (Example 18, Table 24)
Assay type: binding
Condition Notes: lowest value obtained where a range of concentrations was analyzed
Answer each item with its documented pKd.
Recall that pKd is obtained by taking minus log10 of the concentration measured in molar.

Any idea what its pKd is? The molecule is COc1cc(CC(=O)N2CCOCC2)ccc1CN1CCCN(c2ccc(OC)c(OCCCC3CC3)c2)C1=O
9.33

For the molecule COc1cc(CC(=O)N2CCOC(CN(C)C)C2)ccc1CN1CCCN(c2ccc(OC)c(OCCCC3CC3)c2)C1=O (centres unmarked) , what pKd is on record?
10.51

pKd for CCCCCOc1cc(N2CCCN(Cc3cccc4c3ccn4CC3(O)CCN(CC(=O)N(C)C)CC3)C2=O)ccc1OC ?
9.07

Consider the molecule CCCCCOc1cc(N2CCCN(Cc3ccnc4c3c(Cl)cn4CC(=O)NC3(C)COC3)C2=O)ccc1OC and give its measured pKd.
9.93

I would be grateful if you could share the reported pKd for CCCCCOc1cc(N2CCCN(Cc3ccnc4c3c(Cl)cn4CC(=O)N(C)C)C2=O)ncc1OC .
9.82

Request the reported pKd associated with CCCCCOc1cc(N2CCCN(Cc3ccnc4c3c(Cl)cn4CC(=O)NOC)C2=O)ccc1OC
8.92

# query: pKd of entry COc1cc(CC(=O)N2CCNC(=O)C2)ccc1CN1CCCN(c2ccc(OC)c(OCCCC3CC3)c2)C1=O
9.30

Query: pKd; subject: CCCCCOc1cc(N2CCCN(Cc3ccnc4c3c(Cl)cn4CC(=O)NO)C2=O)ccc1OC
9.52

----------
Tested System: purified human C5 (Homo sapiens)
Protocol Notes: Red blood cell (RBC) hemolysis assay, optical, absorbance 412 nm (Example 10, Table 19)
Type: cell-based
Condition Notes: antibody-sensitized sheep erythrocytes, […] human C5 depleted sera, 0.5 nM purified human C5, absorbance 412 nm; read-out: RBC Hemolysis IC50
Experimental Readout: log10 IC50 (log10 of the value in nM)
Units before log transform: nM; reported quantity: IC50; transform: log10.

Requested read-out: log10 IC50. Entry: COc1ccc(NC(=O)NCc2ccc3c(c2)OCO3)cc1OCCCC(C)C [Compound C5INH-0330]
3.42

Item COc1ccc(NC(=O)NCc2ccnc3c2ccn3CCCN2CCCC2)cc1OCCCC(C)C [Compound C5INH-0490] has what recorded log10 IC50?
2.16

Tell me the measured log10 IC50 of COc1ccc(NC(=O)NCc2ccncc2OCCCN(C)C)cc1OCCCC(C)C [Compound C5INH-0402] , please.
3.13

Tell me the measured log10 IC50 of COc1ccc(NC(=O)NC(CO)c2ccc3[nH]ccc3c2)cc1OCCCC(C)C (centres unmarked) [Compound C5INH-0353] , please.
2.52

For the compound shown here, COc1ccc(NC(=O)NCc2ccnc3c2ccn3CCC(=O)O)cc1OCCCC(C)C [Compound C5INH-0399] , give the reported log10 IC50.
2.79

log10 IC50 lookup needed for COc1ccc(NC(=O)NCc2cccc3ccsc23)cc1OCCCC(C)C [Compound C5INH-0294] , thanks.
2.54

For the compound shown here, COc1ccc(NC(=O)N[C@@H](CO)c2ccccc2)cc1C(F)CCCC(C)C (some centres unmarked) [Compound C5INH-0432] , give the reported log10 IC50.
2.62

Report log10 IC50 for COc1ccc(N)cc1CNC(=O)Nc1ccc(OC)c(OCCCC(C)C)c1 [Compound C5INH-0321] please.
1.79

Look at this compound and give its reported log10 IC50. COc1ccc(C2CCCN2C(=O)Nc2ccc(OC)c(OCCCC(C)C)c2)cc1 (centres unmarked) [Compound C5INH-0387]
2.76

Param item = COc1ccc(NC(=O)NC(CO)c2cccc(CN)c2)cc1OCCCC(C)C (centres unmarked) [Compound C5INH-0373] ; retrieve measured log10 IC50.
3.18

// query log10 IC50 value for entry COc1ccc(NC(=O)NCc2ccccc2OCCC2CCOC2)cc1OCCCC(C)C (centres unmarked) [Compound C5INH-0338]
3.64

Would you kindly share the measured log10 IC50 for COc1ccc(NC(=O)NCc2ccc3c(c2)OCCO3)cc1OCCCC(C)C [Compound C5INH-0340] ?
3.00

Find the recorded log10 IC50 belonging to CCS(=O)(=O)NCCn1ccc2c(CNC(=O)Nc3ccc(OC)c(OCCCC(C)C)c3)ccnc21 [Compound C5INH-0410] and report it.
2.75

Tell me the measured log10 IC50 of COc1ccc(NC(=O)NCc2ccc(Cn3ccnc3)cc2)cc1OCCCC(C)C [Compound C5INH-0460] , please.
2.86

Which log10 IC50 value is on record for COc1ccc(NC(=O)NCc2cccc3[nH]ccc23)cc1OCCCC(C)C [Compound C5INH-0537] ?
2.14

I am curious: what log10 IC50 value has been reported for COc1ccc(NC(=O)NC(CO)c2ccccc2)cc1COCCC(C)C (centres unmarked) [Compound C5INH-0477] ?
3.16

Which value of log10 IC50 has been reported for COc1ccc(NC(=O)NCc2c(F)cccc2OC)cc1OCCCC(C)C [Compound C5INH-0326] in the records?
2.89

Item COc1ccc(NC(=O)NCc2ccnc3c2ccn3CC(=O)N2CCOCC2)cc1OCCCC(C)C [Compound C5INH-0508] has what recorded log10 IC50?
1.86

Could you share which log10 IC50 value was measured for COc1ccc(NC(=O)NCc2cccnc2OC)cc1OCCCC(C)C [Compound C5INH-0310] ?
2.31

Query: log10 IC50; subject: COc1ccc(NC(=O)NCc2ccnc(NCCN3CCOCC3)c2OC)cc1OCCCC(C)C [Compound C5INH-0452]
1.98

# get_value(readout='log10 IC50', item= COc1ccc(NC(=O)NCc2ccc(O)cc2O)cc1OCCCC(C)C [Compound C5INH-0311] )
1.43

Need log10 IC50, item CCOc1ccccc1CNC(=O)Nc1ccc(OC)c(OCCCC(C)C)c1 [Compound C5INH-0339]
2.94

Dear colleague, I am looking for the recorded log10 IC50 of the following compound: COc1ccc(NC(=O)N2CCCC2c2ccc(N(C)C)cc2)cc1OCCCC(C)C (centres unmarked) [Compound C5INH-0396]
3.37

// returns reported log10 IC50 for input COc1ccc(CNC(=O)Nc2ccc(OC)c(OCCCC(C)C)c2)c(O)c1 [Compound C5INH-0485]
1.67

Look up log10 IC50 for this compound: CNc1ccc(CNC(=O)Nc2ccc(OC)c(OCCCC(C)C)c2)cc1 [Compound C5INH-0443]
3.30

# lookup: log10 IC50 of COc1ccc(NC(=O)NCc2cccc3c2OCCO3)cc1OCCCC(C)C [Compound C5INH-0543]
2.57

What measured log10 IC50 goes with COc1ccc(NC(=O)N[C@@H](CO)c2ccccc2)cc1OCCc1cccs1 [Compound C5INH-0349] ?
3.18

Returns the measured log10 IC50 for the input compound. Input: COc1ccc(NC(=O)NCc2ccc3c(ccn3CCN(C)C)c2)cc1OCCCC(C)C [Compound C5INH-0414]
2.89

For the compound shown here, COc1cc(F)ccc1CNC(=O)Nc1ccc(OC)c(OCCCC(C)C)c1 [Compound C5INH-0298] , give the reported log10 IC50.
2.43

log10 IC50 lookup needed for COc1cc(CC(=O)O)c(NC(=O)N[C@H](CO)c2ccccc2)cc1OCCCC(C)C [Compound C5INH-0355] , thanks.
3.47

// log10 IC50 lookup, key: COc1ccc(NC(=O)NCc2ccc(CN3CCN(C)CC3)cc2)cc1OCCCC(C)C [Compound C5INH-0324]
2.74

// returns reported log10 IC50 for input COc1ccc(NCCCN2CCOCC2)cc1CNC(=O)Nc1ccc(OC)c(OCCCC(C)C)c1 [Compound C5INH-0534]
3.05

----------
Answer each item with its documented solubility kinetic.
Protocol Notes: Kinetic solubility in PBS pH 7.4, HPLC-UV (Example 21, Table 27)
Format: physicochemical
Condition Notes: phosphate buffered saline, aqueous buffer, kinetic from dmso stock, 0.5 M PBS, shaken minimum 24 h at approximately 25° C., HPLC-UV 270 nm
Field format: number, assumed µM, no unit text.

# solubility kinetic lookup, item CCC(F)(F)CCOc1cc(N2CCCN(Cc3ccc(CC(=O)NC4CCN(C(C)C)CC4)cc3OC)C2=O)ccc1OC [CU0207]
415

I am curious: what solubility kinetic value has been reported for CCCCCOc1cc(N2CC[C@H](C)N(Cc3cccc4c3c(Cl)cn4CC(=O)N3CCOC(CN(C)C)C3)C2=O)ccc1OC (stereo partly shown) [SC0154] ?
315

If you can, please state the reported solubility kinetic value of CCCCCOc1cc(N2CCCN(Cc3ccc(CC(=O)N4CCO[C@@H](COC)C4)cc3OC)C2=O)ccc1OC [CU0224] .
466
